Test system: 945468-187-T-J2-PDC spheroids viability
Experiment: Anticancer human tumor 945468-187-T-J2-PDC patient-derived rectal carcinoma cell line growth inhibition [PI3K]
Details: second compound 0.1 µM; first compound 0.0316 µM; stronger effect = lower value; spheroids with HUVEC and MSC
From the text: Combinatorial screen of targeted agents with the PI3K inhibitors inavolisib, alpelisib, duvelisib, and copanlisib in multi-cell type tumor spheroids A high-throughput screen of multi-cell type tumor spheroids was designed to identify active combinations of targeted small molecules and PI3K pathway inhibitors. […] Compounds. […] If the clinical Cmax for an agent had not been determined, the highest concentration tested was 10 microM. […]
The following compounds are listed with their measured viability, T/C values.
quantity measured: viability, T/C (%)

INSERT INTO results (compound, reading_unit, reported_measurement) VALUES
  ('CCCS(=O)(=O)Nc1ccc(F)c(C(=O)c2c[nH]c3ncc(-c4ccc(Cl)cc4)cc23)c1F + COc1c(OCCCN2CCOCC2)ccc2c3n(c(=NC(=O)c4cnc(N)nc4)nc12)CCN3', '%', 73.1),
  ('CCN1CCN(Cc2ccc(Nc3ncc(F)c(-c4cc(F)c5nc(C)n(C(C)C)c5c4)n3)nc2)CC1 + Cc1nc(NC(=O)N2CCCC2C(N)=O)sc1-c1ccnc(C(C)(C)C(F)(F)F)c1', '%', 131),
  ('C=CC(=O)N1CCN(c2nc(=O)n(-c3c(C)ccnc3C(C)C)c3nc(-c4c(O)cccc4F)c(F)cc23)C(C)C1 (stereo not given) + Cc1nc(NC(=O)N2CCCC2C(N)=O)sc1-c1ccnc(C(C)(C)C(F)(F)F)c1', '%', 117),
  ('Cn1ncnc1[C@H]1c2n[nH]c(=O)c3cc(F)cc(c23)N[C@@H]1c1ccc(F)cc1 + CC(Nc1ncnc2nc[nH]c12)c1cc2cccc(Cl)c2c(=O)n1-c1ccccc1', '%', 103),
  ('CNC(=O)c1ccc(N2C(=S)N(c3ccc(C#N)c(C(F)(F)F)c3)C(=O)C2(C)C)cc1F + CC(Nc1ncnc2nc[nH]c12)c1cc2cccc(Cl)c2c(=O)n1-c1ccccc1', '%', 92.6),
  ('CC1(C)CCC(CN2CCN(c3ccc(C(=O)NS(=O)(=O)c4ccc(NCC5CCOCC5)c([N+](=O)[O-])c4)c(Oc4cnc5[nH]ccc5c4)c3)CC2)=C(c2ccc(Cl)cc2)C1 + CC(Nc1ccc2c(c1)OCCn1cc(N3C(=O)OCC3C(F)F)nc1-2)C(N)=O', '%', 98.9),
  ('CC1(C)CCC(Nc2ncc(C(F)(F)F)c(-c3c[nH]c4c(P(C)(C)=O)c(C#N)ccc34)n2)CN1 (stereo not given) + CC(Nc1ncnc2nc[nH]c12)c1cc2cccc(Cl)c2c(=O)n1-c1ccccc1', '%', 95.6),
  ('CC1(C)CCC(CN2CCN(c3ccc(C(=O)NS(=O)(=O)c4ccc(NCC5CCOCC5)c([N+](=O)[O-])c4)c(Oc4cnc5[nH]ccc5c4)c3)CC2)=C(c2ccc(Cl)cc2)C1 + CC(Nc1ncnc2nc[nH]c12)c1cc2cccc(Cl)c2c(=O)n1-c1ccccc1', '%', 82.3),
  ('Cn1ncc(Cl)c1-c1cc(C(=O)NC(CN)Cc2cccc(F)c2)sc1Cl (stereo not given) + Cc1nc(NC(=O)N2CCCC2C(N)=O)sc1-c1ccnc(C(C)(C)C(F)(F)F)c1', '%', 116),
  ('Cn1ncc(Cl)c1-c1cc(C(=O)NC(CN)Cc2cccc(F)c2)sc1Cl (stereo not given) + CC(Nc1ccc2c(c1)OCCn1cc(N3C(=O)OCC3C(F)F)nc1-2)C(N)=O', '%', 93.2);

---

The following compounds are listed with their measured viability, T/C values.
Test system: 945468-187-T-J2-PDC spheroids viability
Experiment: Anticancer human tumor 945468-187-T-J2-PDC cell line growth inhibition [PI3K];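 also: spheroids exposed to compounds for seven days before reading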
Details: second compound 0.00316 µM; first compound 0.00316 µM; stronger effect = lower value; spheroids with HUVEC and MSC
Text: Combinatorial screen of targeted agents with the PI3K inhibitors inavolisib, alpelisib, duvelisib, and copanlisib in multi-cell type tumor spheroids A high-throughput screen of multi-cell type tumor spheroids was designed to identify active combinations of targeted small molecules and PI3K pathway inhibitors. […] Compounds. […] If the clinical Cmax for an agent had not been determined, the highest concentration tested was 10 microM. […]
quantity measured: viability, T/C (%)

INSERT INTO assay_data (compound, reported_measurement) VALUES
  ('CC(C)n1nc(-c2ccc3oc(N)nc3c2)c2c(N)ncnc21 + COc1c(OCCCN2CCOCC2)ccc2c3n(c(=NC(=O)c4cnc(N)nc4)nc12)CCN3', 81.7),
  ('CCN1CCN(Cc2ccc(Nc3ncc(F)c(-c4cc(F)c5nc(C)n(C(C)C)c5c4)n3)nc2)CC1 + CC(Nc1ccc2c(c1)OCCn1cc(N3C(=O)OCC3C(F)F)nc1-2)C(N)=O', 113),
  ('CC(C)n1nc(-c2ccc3oc(N)nc3c2)c2c(N)ncnc21 + CC(Nc1ccc2c(c1)OCCn1cc(N3C(=O)OCC3C(F)F)nc1-2)C(N)=O', 115),
  ('CC(=O)c1c(C)c2cnc(Nc3ccc(N4CCNCC4)cn3)nc2n(C2CCCC2)c1=O + COc1c(OCCCN2CCOCC2)ccc2c3n(c(=NC(=O)c4cnc(N)nc4)nc12)CCN3', 110),
  ('CC(=O)c1c(C)c2cnc(Nc3ccc(N4CCNCC4)cn3)nc2n(C2CCCC2)c1=O + CC(Nc1ccc2c(c1)OCCn1cc(N3C(=O)OCC3C(F)F)nc1-2)C(N)=O', 73.9),
  ('CCN1CCN(Cc2ccc(Nc3ncc(F)c(-c4cc(F)c5nc(C)n(C(C)C)c5c4)n3)nc2)CC1 + COc1c(OCCCN2CCOCC2)ccc2c3n(c(=NC(=O)c4cnc(N)nc4)nc12)CCN3', 107),
  ('Cn1ncnc1[C@H]1c2n[nH]c(=O)c3cc(F)cc(c23)N[C@@H]1c1ccc(F)cc1 + COc1c(OCCCN2CCOCC2)ccc2c3n(c(=NC(=O)c4cnc(N)nc4)nc12)CCN3', 90.7),
  ('Cn1ncnc1[C@H]1c2n[nH]c(=O)c3cc(F)cc(c23)N[C@@H]1c1ccc(F)cc1 + CC(Nc1ccc2c(c1)OCCn1cc(N3C(=O)OCC3C(F)F)nc1-2)C(N)=O', 105);

---

Tested on: 945468-187-T-J2-PDC spheroids viability
Assay: Anticancer human tumor 945468-187-T-J2-PDC cell line growth inhibition [PI3K];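 also: spheroids exposed to compounds for seven days before reading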
Settings: second compound 0.1 µM; first compound 0.0316 µM; stronger effect = lower value; spheroids with HUVEC and MSC
The following compounds are listed with their measured viability, T/C values.
quantity measured: viability, T/C (%)

INSERT INTO measurements (compound, reading_unit, reported_measurement) VALUES
  ('Cn1ncc(Cl)c1-c1cc(C(=O)NC(CN)Cc2cccc(F)c2)sc1Cl (stereo not given) + CC(Nc1ncnc2nc[nH]c12)c1cc2cccc(Cl)c2c(=O)n1-c1ccccc1', '%', 91.1),
  ('CC1(C)CCC(CN2CCN(c3ccc(C(=O)NS(=O)(=O)c4ccc(NCC5CCOCC5)c([N+](=O)[O-])c4)c(Oc4cnc5[nH]ccc5c4)c3)CC2)=C(c2ccc(Cl)cc2)C1 + Cc1nc(NC(=O)N2CCCC2C(N)=O)sc1-c1ccnc(C(C)(C)C(F)(F)F)c1', '%', 118),
  ('C#Cc1c(F)ccc2cc(O)cc(-c3ncc4c(N5CC6CCC(C5)N6)nc(OCC56CCCN5CC(F)C6)nc4c3F)c12 (stereo not given) + CC(Nc1ccc2c(c1)OCCn1cc(N3C(=O)OCC3C(F)F)nc1-2)C(N)=O', '%', 82.6),
  ('CCCS(=O)(=O)Nc1ccc(F)c(C(=O)c2c[nH]c3ncc(-c4ccc(Cl)cc4)cc23)c1F + Cc1nc(NC(=O)N2CCCC2C(N)=O)sc1-c1ccnc(C(C)(C)C(F)(F)F)c1', '%', 87.3),
  ('CC(Cn1ccc(-c2ccc(C#N)c(Cl)c2)n1)NC(=O)c1cc(C(C)O)[nH]n1 (stereo not given) + CC(Nc1ccc2c(c1)OCCn1cc(N3C(=O)OCC3C(F)F)nc1-2)C(N)=O', '%', 86.2),
  ('CC1(C)CCC(Nc2ncc(C(F)(F)F)c(-c3c[nH]c4c(P(C)(C)=O)c(C#N)ccc34)n2)CN1 (stereo not given) + CC(Nc1ccc2c(c1)OCCn1cc(N3C(=O)OCC3C(F)F)nc1-2)C(N)=O', '%', 105),
  ('CC1(C)CCC(CN2CCN(c3ccc(C(=O)NS(=O)(=O)c4ccc(NCC5CCOCC5)c([N+](=O)[O-])c4)c(Oc4cnc5[nH]ccc5c4)c3)CC2)=C(c2ccc(Cl)cc2)C1 + COc1c(OCCCN2CCOCC2)ccc2c3n(c(=NC(=O)c4cnc(N)nc4)nc12)CCN3', '%', 87.7),
  ('CCCS(=O)(=O)Nc1ccc(F)c(C(=O)c2c[nH]c3ncc(-c4ccc(Cl)cc4)cc23)c1F + CC(Nc1ccc2c(c1)OCCn1cc(N3C(=O)OCC3C(F)F)nc1-2)C(N)=O', '%', 92.3),
  ('CCN1CCN(Cc2ccc(Nc3ncc(F)c(-c4cc(F)c5nc(C)n(C(C)C)c5c4)n3)nc2)CC1 + CC(Nc1ncnc2nc[nH]c12)c1cc2cccc(Cl)c2c(=O)n1-c1ccccc1', '%', 118),
  ('Cn1ncnc1[C@H]1c2n[nH]c(=O)c3cc(F)cc(c23)N[C@@H]1c1ccc(F)cc1 + CC(Nc1ccc2c(c1)OCCn1cc(N3C(=O)OCC3C(F)F)nc1-2)C(N)=O', '%', 118);
